# targetOrSystem: mouse Nurr1 receptor (Mus musculus)
# Construct: a cell line (N2A) endogenously expressing the mouse Nurr1 receptor
# Sequence (Q06219 whole entry): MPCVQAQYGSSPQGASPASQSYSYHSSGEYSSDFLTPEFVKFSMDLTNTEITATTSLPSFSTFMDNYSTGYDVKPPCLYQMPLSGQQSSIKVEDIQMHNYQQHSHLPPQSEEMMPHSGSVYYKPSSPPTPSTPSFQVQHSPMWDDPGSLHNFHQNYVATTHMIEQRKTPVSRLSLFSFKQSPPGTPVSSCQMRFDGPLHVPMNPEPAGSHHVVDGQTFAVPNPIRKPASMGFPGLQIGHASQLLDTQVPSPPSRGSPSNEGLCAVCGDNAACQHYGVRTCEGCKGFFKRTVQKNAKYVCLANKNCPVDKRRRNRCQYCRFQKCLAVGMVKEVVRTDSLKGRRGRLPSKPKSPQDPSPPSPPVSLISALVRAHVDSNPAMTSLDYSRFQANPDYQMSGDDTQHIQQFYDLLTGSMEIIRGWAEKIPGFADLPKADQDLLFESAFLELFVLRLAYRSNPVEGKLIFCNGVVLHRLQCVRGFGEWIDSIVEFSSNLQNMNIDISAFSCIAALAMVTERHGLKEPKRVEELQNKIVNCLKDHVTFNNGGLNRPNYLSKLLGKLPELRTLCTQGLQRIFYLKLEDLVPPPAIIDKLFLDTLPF
# testDetails: Evaluation of the in vitro activity on N2A cells (NBRE-luciferase reporter)
# runParameters: N2A (Neuro-2A) cells endogenously expressing Nurr1, stably transfected with 8NBRE-luciferase; products incubated 24 hours; luminescence
# Procedure: The activity of the compounds according to the invention was evaluated on a cell line (N2A) endogenously expressing the mouse Nurr1 receptor and stably transfected with the NOT binding response element (NBRE) coupled to the luciferase reporter gene. The EC50 values are between 0.01 and 1000 nM. […] The Neuro-2A cell line comes from a standard commercial source (ATCC). […] The plates are subsequently measured in a luminescence counter for microplates after having been sealed with an adhesive film. […]
assayMetric: pEC50
One number for each entry, as −log10 of the molar value.

Some compounds with known pEC50 results, for comparison:
compound: O=C(c1cn2cc(-c3cccc(CO)c3)ccc2n1)N1CC=CC1
assayMetric: pEC50
experimentalResult: 8.30
--
compound: O=C(c1cn2cc(-c3nc[nH]n3)ccc2n1)N1CCc2ccccc21
assayMetric: pEC50
experimentalResult: 7.96
--
compound: O=C(c1cn2cc(-c3ncco3)ccc2n1)N1CC=CCC1
assayMetric: pEC50
experimentalResult: 7.25
--
compound: O=C(c1cn2cc(-c3c[nH]cn3)ccc2n1)N1CCc2ccccc21
assayMetric: pEC50
experimentalResult: 8.62

Can you give me pEC50 for all of these, one by one?
1. CN(C)c1ccc2nc(C(=O)N3CCc4ccc(F)cc43)cn2c1
2. O=C(c1cn2cc(-c3cccc(CO)c3)ccc2n1)N1CC=CCC1

Reply:
1: 8.17; 2: 9.10
